test system: MDA-MB-231 breast cancer cells; assay: MTS cell viability assay, MDA-MB-231 breast cancer cells; format: cell-based; conditions: Homo sapiens, 48 h exposure, quadruplicate, read-out: IC50 values against cancer cells, MDA-MB-231 breast
# strict inequality: IC50 < 700 nM yields satisfied, everything else yields not satisfied

| GIVEN_SMILES | LABEL_CLASS |
| --- | --- |
| O=C1Nc2ccc(Br)cc2C1=C1Nc2ccccc2C1=NOCCN1CCNCC1 | satisfied |
| CCN(CC)CCO/N=C1/C(=C2/C(=O)Nc3ccc(Br)cc32)Nc2ccccc21 | satisfied |
| O=C1Nc2ccc(Br)cc2C1=C1Nc2ccccc2C1=NOCCN1CCCC1 | satisfied |
| O=C1Nc2ccc(Br)cc2/C1=C1/Nc2ccccc2/C1=N\OCCN1CCN(CCOCCO)CC1 | not satisfied |
| CN1CCN(CCO/N=C2/C(=C3/C(=O)Nc4ccc(Br)cc43)Nc3ccccc32)CC1 | not satisfied |
| O=C1Nc2ccc(Br)cc2/C1=C1/Nc2ccccc2/C1=N\OCCN1CCCC1 | satisfied |
| O=C1Nc2ccc(Br)cc2/C1=C1/Nc2ccccc2/C1=N\OCCN1CCN(CCO)CC1 | not satisfied |

====

Here the recorded IC50 is given for each entry.
Molecular target: TYK2 (Homo sapiens, UniProt P29597)
Sequence (P29597 whole entry): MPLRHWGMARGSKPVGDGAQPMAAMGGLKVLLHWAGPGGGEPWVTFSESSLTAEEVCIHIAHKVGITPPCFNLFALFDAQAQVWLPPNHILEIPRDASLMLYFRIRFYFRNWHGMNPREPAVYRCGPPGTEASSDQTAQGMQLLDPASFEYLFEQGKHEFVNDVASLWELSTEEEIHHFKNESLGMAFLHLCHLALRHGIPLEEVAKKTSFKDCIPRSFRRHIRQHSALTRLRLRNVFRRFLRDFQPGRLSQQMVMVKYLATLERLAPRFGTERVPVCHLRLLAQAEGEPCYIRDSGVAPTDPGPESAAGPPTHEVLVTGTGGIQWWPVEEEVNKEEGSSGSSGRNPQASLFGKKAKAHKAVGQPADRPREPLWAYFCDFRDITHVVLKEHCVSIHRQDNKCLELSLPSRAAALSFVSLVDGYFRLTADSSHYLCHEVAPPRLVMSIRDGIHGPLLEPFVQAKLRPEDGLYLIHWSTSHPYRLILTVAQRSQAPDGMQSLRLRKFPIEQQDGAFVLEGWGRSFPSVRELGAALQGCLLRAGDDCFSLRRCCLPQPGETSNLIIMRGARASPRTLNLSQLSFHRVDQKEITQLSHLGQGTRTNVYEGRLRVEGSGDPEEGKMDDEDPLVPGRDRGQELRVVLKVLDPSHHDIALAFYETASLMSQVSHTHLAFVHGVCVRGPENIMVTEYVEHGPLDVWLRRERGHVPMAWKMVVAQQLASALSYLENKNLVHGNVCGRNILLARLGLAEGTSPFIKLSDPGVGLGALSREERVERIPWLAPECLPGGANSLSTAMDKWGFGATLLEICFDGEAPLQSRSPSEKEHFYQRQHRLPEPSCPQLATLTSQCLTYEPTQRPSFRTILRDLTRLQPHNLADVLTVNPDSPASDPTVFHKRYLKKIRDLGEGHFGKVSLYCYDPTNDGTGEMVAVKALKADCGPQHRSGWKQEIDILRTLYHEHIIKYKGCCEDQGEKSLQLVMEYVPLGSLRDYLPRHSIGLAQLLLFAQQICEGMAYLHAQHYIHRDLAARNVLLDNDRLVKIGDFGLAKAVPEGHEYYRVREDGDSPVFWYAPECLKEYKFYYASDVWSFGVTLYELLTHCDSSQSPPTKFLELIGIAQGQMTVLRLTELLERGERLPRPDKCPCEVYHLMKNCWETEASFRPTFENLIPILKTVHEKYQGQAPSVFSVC
Test: In vitro kinase assay with recombinant protein (33P-ATP), TYK2
Details: 120 min at room temperature, read-out: IC50 against kinase activity in vitro, TYK2
Procedure: The kinase assays were performed with recombinant proteins. Briefly, proteins, freshly prepared substrates and ^33P-ATP (specific activity 0.01 μCi/μl final) were mixed in reaction buffer (20 mM HEPES pH 7.5, 10 mM MgCl2, 1 mM EGTA, 0.02% Brij35, 0.02 mg/ml BSA, 0.1 mM Na3VO4, 2 mM DTT) in the presence of DMSO as control or 5BIODs. The mixtures were reacted for 120 min at room temperature. […] The radioactivities were monitored.

| MOLECULE | RESULT_UNIT | IC50 |
| --- | --- | --- |
| CCN(CC)CCON=C1C(=C2C(=O)Nc3ccc(Br)cc32)Nc2ccccc21 [Compound 1277] | µM | 0.146 |
| O=C1Nc2ccc(Br)cc2C1=C1Nc2ccccc2C1=NOCCN1CCCC1 [Compound 1281] | µM | 0.021 |
| CN(CCO/N=C1/C(=C2/C(=O)Nc3ccc(Br)cc32)Nc2ccccc21)CC(O)CO (stereo not drawn) [Compound 1279] | µM | 0.0627 |
| O=C1Nc2ccc(Br)cc2C1=C1Nc2ccccc2C1=NOCCN1CCNCC1 [Compound 1289] | µM | 0.0201 |
| CN(CCO/N=C1/C(=C2/C(=O)Nc3ccc(Br)cc32)Nc2ccccc21)CC(O)CO (stereo not drawn) [Compound 1278] | µM | 0.027 |
| CCN(CC)CCO/N=C1/C(=C2/C(=O)Nc3ccc(Br)cc32)Nc2ccccc21 [Compound 1276] | µM | 0.0316 |

====

Here the recorded IC50 is given for each entry.
system: DU145 prostate cancer cells; test: MTS cell viability assay, DU145 prostate cancer cells; format: cell-based, human; settings: Homo sapiens, DU-145, 48 h exposure, quadruplicate, read-out: IC50 values against cancer cells, DU145 prostate
MEASURED_ATTRIBUTE: IC50 (µM)

| GIVEN_SMILES | REPORTED_RESULT |
| --- | --- |
| O=C1Nc2ccc(Br)cc2C1=C1Nc2ccccc2C1=NOCCN1CCNCC1 | 0.69 |
| CCCN(CCC)CCO/N=C1/C(=C2/C(=O)Nc3ccc(Br)cc32)Nc2ccccc21 | 1.5 |
| O=C1Nc2ccc(Br)cc2/C1=C1/Nc2ccccc2/C1=N\OCCN1CCCC1 | 0.66 |
| O=C1Nc2ccc(Br)cc2C1=C1Nc2ccccc2C1=NOCCN1CCCC1 | 0.66 |
| CN(C)CCO/N=C1/C(=C2/C(=O)Nc3ccc(Br)cc32)Nc2ccccc21 | 0.32 |
| O=C1Nc2ccc(Br)cc2/C1=C1/Nc2ccccc2/C1=N\OCCN1CCN(CCO)CC1 | 0.91 |
